assay: physchem; format: physicochemical; conditions: n-octanol/tris buffer, pH 7.4

molecule | logD
CCc1occc(=O)c1O [ethylpyromeconic acid, 2-ethyl-3-hydroxy-4-pyrone, reference compound] | -0.125
